remaining at 1 h, 1 μM: recorded values
assayDetails: in vitro
conditionLabel: rat, microsomes, pH 7.4
Where a SMILES comes first, the peptide text is derived from it. [ ]: non-standard residue; d: D form. ξ: configuration not given here. ξTic = O=C(O)C1Cc2ccccc2CN1; ξOic = O=C(O)C1CC2CCCCC2N1
metric: remaining at 1 h, 1 μM (%)

compound	metric	readoutValue
CC(=O)N[C@@H](Cc1ccccc1)C(=O)N1Cc2ccccc2CC1C(=O)N1C(C(=O)N[C@@H](CCCCN)C(=O)N2Cc3ccccc3CC2C(=O)N2C(C(=O)N[C@@H](Cc3ccccc3)C(=O)N3Cc4ccccc4CC3C(=O)N3C(C(=O)N[C@@H](CCCCN)C(=O)N4Cc5ccccc5CC4C(=O)N[C@@H](CCCCN)C(=O)N[C@@H](CCCCN)C(=O)N[C@@H](CCCCN)C(=O)N[C@@H](CCCCN)C(N)=O)CC4CCCCC43)CC3CCCCC32)CC2CCCCC21 (stereo partly shown) [FKAB-1Gc] (Ac-F[ξTic][ξOic]K[ξTic][ξOic]F[ξTic][ξOic]K[ξTic]KKKK-NH2)	remaining at 1 h, 1 μM	107
CC(=O)NCC(=O)N1Cc2ccccc2CC1C(=O)N1C(C(=O)N[C@@H](CCCCN)C(=O)N2Cc3ccccc3CC2C(=O)N2C(C(=O)NCC(=O)N3Cc4ccccc4CC3C(=O)N3C(C(=O)N[C@@H](CCCCN)C(=O)N4Cc5ccccc5CC4C(=O)N[C@@H](CCCCN)C(=O)N[C@@H](CCCCN)C(=O)N[C@@H](CCCCN)C(=O)N[C@@H](CCCCN)C(N)=O)CC4CCCCC43)CC3CCCCC32)CC2CCCCC21 (stereo partly shown) [FKAB-1Ge] (Ac-G[ξTic][ξOic]K[ξTic][ξOic]G[ξTic][ξOic]K[ξTic]KKKK-NH2)	remaining at 1 h, 1 μM	95
CC(=O)CC(c1ccccc1)c1c(O)c2ccccc2oc1=O (stereo not shown) [Warfarin, warfarin, reference compound]	remaining at 1 h, 1 μM	84
CC(C)NCC(O)COc1cccc2ccccc12 (stereo not shown) [Propranolol, propranolol, reference compound]	remaining at 1 h, 1 μM	0.1

Origin of the recorded values: patent US20120197004A1
